Target: human TLR8 (Homo sapiens)
Sequence (Q9NR97 27-1041): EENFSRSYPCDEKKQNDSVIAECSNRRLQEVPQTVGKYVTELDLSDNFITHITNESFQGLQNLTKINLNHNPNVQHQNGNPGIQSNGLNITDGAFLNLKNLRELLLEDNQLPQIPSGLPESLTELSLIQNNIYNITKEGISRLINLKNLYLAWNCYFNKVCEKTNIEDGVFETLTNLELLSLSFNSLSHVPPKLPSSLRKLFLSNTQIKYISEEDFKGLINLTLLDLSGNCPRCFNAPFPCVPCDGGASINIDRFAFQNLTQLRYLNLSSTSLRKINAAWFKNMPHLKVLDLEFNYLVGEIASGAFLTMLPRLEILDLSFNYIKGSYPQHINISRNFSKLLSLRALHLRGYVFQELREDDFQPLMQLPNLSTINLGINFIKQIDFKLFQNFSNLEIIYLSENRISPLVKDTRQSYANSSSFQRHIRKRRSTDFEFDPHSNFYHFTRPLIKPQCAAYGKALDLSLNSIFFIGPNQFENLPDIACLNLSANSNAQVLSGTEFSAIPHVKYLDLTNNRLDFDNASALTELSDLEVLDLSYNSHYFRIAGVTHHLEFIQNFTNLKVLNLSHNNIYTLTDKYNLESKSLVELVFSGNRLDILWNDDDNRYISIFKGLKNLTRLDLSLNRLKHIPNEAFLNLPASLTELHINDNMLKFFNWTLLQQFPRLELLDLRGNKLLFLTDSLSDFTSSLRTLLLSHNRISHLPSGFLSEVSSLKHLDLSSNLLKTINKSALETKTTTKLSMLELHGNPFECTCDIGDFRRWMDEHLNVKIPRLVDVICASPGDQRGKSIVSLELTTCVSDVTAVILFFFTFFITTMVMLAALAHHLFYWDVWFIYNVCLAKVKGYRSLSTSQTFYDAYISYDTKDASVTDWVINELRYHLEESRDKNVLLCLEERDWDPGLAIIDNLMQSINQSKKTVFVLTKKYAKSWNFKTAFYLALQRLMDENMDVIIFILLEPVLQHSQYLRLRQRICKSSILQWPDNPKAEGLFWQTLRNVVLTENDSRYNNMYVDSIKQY
Experiment: TLR8 inhibition reporter assay (HEK-Blue SEAP)
Details: HEK-Blue cells overexpressing human TLR8, stimulated with R848 15.9 μM, 22 hour incubation
For each of the molecules below, state its pIC50.
Numbers only, as −log10 of the molar value.

Known results for molecules:
{"molecule": "Cc1cc2c(C3CCC(NC4CC4)CC3)n[nH]c2cc1-c1cc(C)c2ncnn2c1 (stereo not shown) [Example 37]", "pIC50": 9.40}
{"molecule": "Cc1cc(-c2cc3[nH]nc(C4CCC(N(C)C)CC4)c3cc2C(C)C)cn2ncnc12 (stereo not shown)", "pIC50": 10.00}

Batch request: pIC50 per item, same order as input.
1. COC1CN(C2CCC(c3n[nH]c4cc(-c5cc(C)c6ncnn6c5)c(C(C)C)cc34)CC2)C1 (stereo not shown) [Example 144]
2. Cc1cc(-c2cc(C)c3ncnn3c2)cc2[nH]nc(OCCN(C)C)c12
3. COc1cc(-c2cc3[nH]nc(C4CCC(N(C)C)CC4)c3cc2C(C)C)cn2ncnc12 (single isomer, unassigned) [Example 141]
4. COc1cc(-c2cc(C)c3ncnn3c2)cc2[nH]nc(C3CCNCC3)c12
5. Cc1cc(-c2cc(C)c3ncnn3c2)cc2[nH]nc(OC3CCN(C(=O)CN(C)C)CC3)c12
6. Cc1cc2c(C3CCN(CCNS(C)(=O)=O)CC3)n[nH]c2cc1-c1cc(C)c2ncnn2c1
7. CCc1cc2c(C3CCN(CC(N)=O)CC3)n[nH]c2cc1-c1cc(C)c2ncnn2c1
8. CCc1cc2c(C3CCC(NCCS(C)(=O)=O)CC3)n[nH]c2cc1-c1cc(C)c2ncnn2c1 (single isomer, unassigned) [Example 99]

[9.30, 8.10, 8.54, 7.66, 7.97, 8.85, 9.70, 10.00]
